- Tested on: Candida albicans
- experiment: In vitro Fungicidal activity (MFC) against Candida albicans (MY 1055).
- Type: functional
Numbered stars: 1 amine (or outer) side, 2 acyl side, 3 side chain; on linkers, the order of the positions; unused ones are H or OH. Bridge positions count the residues as written; N and C are the ends. Square brackets hold non-standard residues; d marks the D form. Peptide text beside a SMILES is read from it. * marks the point of attachment. Orn(4R-OH,5R-OH) = O=C([C@H](C[C@@H](O)[C@@H](O)N[*:3])N[*:1])[*:2]; hTyr(3S-OH,4S-OH) = N[C@H](C(=O)O)[C@H](O)[C@@H](O)c1ccc(O)cc1; X7 = CN(C)CC[C@@H](O)[C@H](N[*:1])C(=O)[*:2]; Pro(3S-OH) = O=C(O)[C@H]1NCC[C@@H]1O; Hyp = O=C(O)[C@@H]1C[C@@H](O)CN1; X1 = CCC(C)CC(C)CCCCCCCCC(=O)*
measured endpoint: MFC (µg/mL)
Give bare numbers, in µg/mL.

### Prompt Output MFC of CCC(C)CC(C)CCCCCCCCC(=O)N[C@H]1C[C@@H](O)[C@@H](O)NC(=O)[C@@H]2[C@@H](O)CCN2C(=O)[C@H]([C@H](O)CCN(C)C)NC(=O)[C@H]([C@H](O)[C@@H](O)c2ccc(O)cc2)NC(=O)[C@@H]2C[C@@H](O)CN2C(=O)[C@H]([C@@H](C)O)NC1=O (stereo partly drawn) (X1-[Orn(4R-OH,5R-OH)]T[Hyp][hTyr(3S-OH,4S-OH)][X7][Pro(3S-OH)]; lactam 1-C)
### Response 1

----------
- experiment: In vivo anti-Candida activity was determined in a mouse model of disseminated candidiasis (TOKA).
- Assay type: functional
Numbered stars: 1 amine (or outer) side, 2 acyl side, 3 side chain; on linkers, the order of the positions; unused ones are H or OH. Bridge positions count the residues as written; N and C are the ends. Square brackets hold non-standard residues; d marks the D form. Peptide text beside a SMILES is read from it. * marks the point of attachment. Orn(4R-OH,5R-OH) = O=C([C@H](C[C@@H](O)[C@@H](O)N[*:3])N[*:1])[*:2]; hTyr(3S-OH,4S-OH) = N[C@H](C(=O)O)[C@H](O)[C@@H](O)c1ccc(O)cc1; X12 = CC(=O)NCC[C@@H](O)[C@H](N[*:1])C(=O)[*:2]; X7 = CN(C)CC[C@@H](O)[C@H](N[*:1])C(=O)[*:2]; Gln(3R-OH) = NC(=O)C[C@@H](O)[C@H](N)C(=O)O; Pro(3S-OH) = O=C(O)[C@H]1NCC[C@@H]1O; Hyp = O=C(O)[C@@H]1C[C@@H](O)CN1; X1 = CCC(C)CC(C)CCCCCCCCC(=O)*
measured endpoint: ED99.9 (mg/kg)
Numbers only, in mg/kg.

Worked cases, answers included:
- CCC(C)CC(C)CCCCCCCCC(=O)N[C@H]1C[C@@H](O)[C@@H](O)NC(=O)[C@@H]2[C@@H](O)CCN2C(=O)[C@H]([C@H](O)CC(N)=O)NC(=O)[C@H]([C@H](O)[C@@H](O)c2ccc(O)cc2)NC(=O)[C@@H]2C[C@@H](O)CN2C(=O)[C@H]([C@@H](C)O)NC1=O (stereo partly drawn) (X1-[Orn(4R-OH,5R-OH)]T[Hyp][hTyr(3S-OH,4S-OH)][Gln(3R-OH)][Pro(3S-OH)]; lactam 1-C): 6
- CCC(C)CC(C)CCCCCCCCC(=O)N[C@H]1C[C@@H](O)[C@@H](O)NC(=O)[C@@H]2[C@@H](O)CCN2C(=O)[C@H]([C@H](O)CCN(C)C)NC(=O)[C@H]([C@H](O)[C@@H](O)c2ccc(O)cc2)NC(=O)[C@@H]2C[C@@H](O)CN2C(=O)[C@H]([C@@H](C)O)NC1=O (stereo partly drawn) (X1-[Orn(4R-OH,5R-OH)]T[Hyp][hTyr(3S-OH,4S-OH)][X7][Pro(3S-OH)]; lactam 1-C): 1.5

### Prompt Output ED99.9 of CCC(C)CC(C)CCCCCCCCC(=O)N[C@H]1C[C@@H](O)[C@@H](O)NC(=O)[C@@H]2[C@@H](O)CCN2C(=O)[C@H]([C@H](O)CCNC(C)=O)NC(=O)[C@H]([C@H](O)[C@@H](O)c2ccc(O)cc2)NC(=O)[C@@H]2C[C@@H](O)CN2C(=O)[C@H]([C@@H](C)O)NC1=O (stereo partly drawn) (X1-[Orn(4R-OH,5R-OH)]T[Hyp][hTyr(3S-OH,4S-OH)][X12][Pro(3S-OH)]; lactam 1-C)
### Response 12

----------
- experiment: In vivo anti-Candida activity was determined in a mouse model of disseminated candidiasis (TOKA).
- Type: functional
Numbered stars: 1 amine (or outer) side, 2 acyl side, 3 side chain; on linkers, the order of the positions; unused ones are H or OH. Bridge positions count the residues as written; N and C are the ends. Square brackets hold non-standard residues; d marks the D form. Peptide text beside a SMILES is read from it. * marks the point of attachment. Orn(4R-OH,5R-OH) = O=C([C@H](C[C@@H](O)[C@@H](O)N[*:3])N[*:1])[*:2]; hTyr(3S-OH,4S-OH) = N[C@H](C(=O)O)[C@H](O)[C@@H](O)c1ccc(O)cc1; Orn(4R-OH) = O=C([C@H](C[C@@H](O)CN[*:3])N[*:1])[*:2]; X10 = N#CCN(CC#N)CC[C@@H](O)[C@H](N[*:1])C(=O)[*:2]; hTyr(3R-OH) = N[C@H](C(=O)O)[C@H](O)Cc1ccc(O)cc1; X2 = O=C(O)C[C@@H](O)[C@H](N[*:1])C(=O)[*:2]; X4 = N=C(S)C[C@@H](O)[C@H](N[*:1])C(=O)[*:2]; Gln(3R-OH) = NC(=O)C[C@@H](O)[C@H](N)C(=O)O; Orn(3R-OH) = NCC[C@@H](O)[C@H](N)C(=O)O; Pro(3S-OH) = O=C(O)[C@H]1NCC[C@@H]1O; Hyp = O=C(O)[C@@H]1C[C@@H](O)CN1; X1 = CCC(C)CC(C)CCCCCCCCC(=O)*
measured endpoint: ED99.9

Worked cases, answers included:
• CCC(C)CC(C)CCCCCCCCC(=O)N[C@H]1C[C@@H](O)CNC(=O)[C@@H]2[C@@H](O)CCN2C(=O)[C@H]([C@H](O)CC(=O)O)NC(=O)[C@H]([C@H](O)Cc2ccc(O)cc2)NC(=O)[C@@H]2C[C@@H](O)CN2C(=O)[C@H]([C@@H](C)O)NC1=O (stereo partly drawn) (X1-[Orn(4R-OH)]T[Hyp][hTyr(3R-OH)][X2][Pro(3S-OH)]; lactam 1-C) = >6 mg/kg
• CCC(C)CC(C)CCCCCCCCC(=O)N[C@H]1C[C@@H](O)[C@@H](O)NC(=O)[C@@H]2[C@@H](O)CCN2C(=O)[C@H]([C@H](O)CCN(CC#N)CC#N)NC(=O)[C@H]([C@H](O)[C@@H](O)c2ccc(O)cc2)NC(=O)[C@@H]2C[C@@H](O)CN2C(=O)[C@H]([C@@H](C)O)NC1=O (stereo partly drawn) (X1-[Orn(4R-OH,5R-OH)]T[Hyp][hTyr(3S-OH,4S-OH)][X10][Pro(3S-OH)]; lactam 1-C) = >1.5 mg/kg
• CCC(C)CC(C)CCCCCCCCC(=O)N[C@H]1C[C@@H](O)CNC(=O)[C@@H]2[C@@H](O)CCN2C(=O)[C@H]([C@H](O)CCN)NC(=O)[C@H]([C@H](O)Cc2ccc(O)cc2)NC(=O)[C@@H]2C[C@@H](O)CN2C(=O)[C@H]([C@@H](C)O)NC1=O (stereo partly drawn) (X1-[Orn(4R-OH)]T[Hyp][hTyr(3R-OH)][Orn(3R-OH)][Pro(3S-OH)]; lactam 1-C) = 1.5 mg/kg

For each of the items listed, what is its ED99.9?
1. CCC(C)CC(C)CCCCCCCCC(=O)N[C@H]1C[C@@H](O)CNC(=O)[C@@H]2[C@@H](O)CCN2C(=O)[C@H]([C@H](O)CC(N)=O)NC(=O)[C@H]([C@H](O)Cc2ccc(O)cc2)NC(=O)[C@@H]2C[C@@H](O)CN2C(=O)[C@H]([C@@H](C)O)NC1=O (stereo partly drawn) (X1-[Orn(4R-OH)]T[Hyp][hTyr(3R-OH)][Gln(3R-OH)][Pro(3S-OH)]; lactam 1-C)
2. CCC(C)CC(C)CCCCCCCCC(=O)N[C@H]1C[C@@H](O)CNC(=O)[C@@H]2[C@@H](O)CCN2C(=O)[C@H]([C@H](O)CC(=N)S)NC(=O)[C@H]([C@H](O)Cc2ccc(O)cc2)NC(=O)[C@@H]2C[C@@H](O)CN2C(=O)[C@H]([C@@H](C)O)NC1=O (stereo partly drawn) (X1-[Orn(4R-OH)]T[Hyp][hTyr(3R-OH)][X4][Pro(3S-OH)]; lactam 1-C)

### Response
>6 mg/kg
>6 mg/kg
